src = the supplement of paper PMC4862054

Test system: BT-474
RUN_DESCRIPTION: normalised response (% of control), CellTox Green; higher = less cell death (100 = DMSO, 0 = benzethonium chloride kill control)
STUDY_CONDITIONS: incubation time: 72 h
OBSERVATION_TYPE: normalised response (%)

COMPOUND | OBSERVATION_TYPE | UNIT_ANNOTATION | VALUE_REPORTED
C=CC(=O)Nc1cc2c(Nc3ccc(F)c(Cl)c3)ncnc2cc1OCCCN1CCOCC1 [Canertinib] (100 nM) | normalised response | % | 84.4
CCCS(=O)(=O)Nc1ccc(F)c(C(=O)c2c[nH]c3ncc(-c4ccc(Cl)cc4)cc23)c1F [Vemurafenib] (10000 nM) | normalised response | % | 95.4
Cc1ccc(-c2cc(C(F)(F)F)nn2-c2ccc(S(N)(=O)=O)cc2)cc1 [Celecoxib] (100 nM) | normalised response | % | 99.5
Cc1ccc(-c2cc(C(F)(F)F)nn2-c2ccc(S(N)(=O)=O)cc2)cc1 [Celecoxib] (1000 nM) | normalised response | % | 101
COc1cc2c(Oc3ccc4[nH]c(C)cc4c3F)ncnc2cc1OCCCN1CCCC1 [Cediranib] (100 nM) | normalised response | % | 104
Nc1ccccc1NC(=O)c1ccc(CNC(=O)OCc2cccnc2)cc1 [Entinostat] (100 nM) | normalised response | % | 100
Cc1cnc(NC(=O)Nc2cc(Br)c(C)cc2OC[C@@H]2CNCCO2)cn1 [Rabusertib] (10 nM) | normalised response | % | 102

----------
# maps each entry to its normalised response
Tested on: DU-4475
RUN_DESCRIPTION: normalised response (% of control), CellTox Green; higher = less cell death (100 = DMSO, 0 = benzethonium chloride kill control)
STUDY_CONDITIONS: incubation time: 72 h

COMPOUND | ASSAYED_TARGET | normalised response (%)
COc1cc2c(Oc3ccc4[nH]c(C)cc4c3F)ncnc2cc1OCCCN1CCCC1 [Cediranib] (1000 nM) | DU-4475 | 103
O=C(O)C(=O)O.[NH-][C@@H]1CCCC[C@H]1[NH-].[Pt+2] [Oxaliplatin] (1000 nM) | DU-4475 | 98.1
CNC(=O)c1cc(Oc2ccc(NC(=O)Nc3cc(C(C)(C)C)nn3-c3ccc4ncccc4c3)c(F)c2)ccn1 [Rebastinib] (1000 nM) | DU-4475 | 99.7

----------
Tested on: MDA-MB-436
RUN_DESCRIPTION: normalised response (% of control), CellTiter-Glo; higher = more viable cells (100 = DMSO, 0 = benzethonium chloride kill control)
STUDY_CONDITIONS: incubation time: 72 h
OBSERVATION_TYPE: normalised response (%)

COMPOUND | OBSERVATION_TYPE | VALUE_REPORTED
Oc1ncc(N(CCCl)CCCl)c(O)n1 [Uracil mustard] (100 nM) | normalised response | 98.9
CC(=O)Nc1cccc(-n2c(=O)n(C3CC3)c(=O)c3c(Nc4ccc(I)cc4F)n(C)c(=O)c(C)c32)c1 [Trametinib] (2.5 nM) | normalised response | 96.1
Nc1nc(F)nc2c1ncn2[C@@H]1O[C@H](CO)[C@@H](O)[C@@H]1O [Fludarabine] (100 nM) | normalised response | 101
Nc1nc2[nH]cc(CCc3ccc(C(=O)N[C@@H](CCC(=O)O)C(=O)O)cc3)c2c(=O)[nH]1 [Pemetrexed] (100 nM) | normalised response | 80.9

----------
Test system: CAL-148
RUN_DESCRIPTION: drug sensitivity score (DSS), CellTiter-Glo (DSS (AUC-based score)); higher = stronger drug effect (viability inhibition or cytotoxicity); extreme values may be limits of the assay
STUDY_CONDITIONS: incubation time: 72 h

CHEMICAL_STRUCTURE | drug sensitivity score
CC1=C(/C=C/C(C)=C/C=C/C(C)=C/C(=O)O)C(C)(C)CCC1 | 2.48
CCCCC(=O)OCC(=O)[C@]1(O)Cc2c(O)c3c(c(O)c2[C@@H](O[C@H]2C[C@H](NC(=O)C(F)(F)F)[C@H](O)[C@H](C)O2)C1)C(=O)c1c(OC)cccc1C3=O | 13.8
CC[C@H](Nc1ncnc2[nH]cnc12)c1nc2cccc(F)c2c(=O)n1-c1ccccc1 | 0
O=C(O)C(=O)O.[NH-][C@@H]1CCCC[C@H]1[NH-].[Pt+2] | 0

----------
Tested on: MFM-223
RUN_DESCRIPTION: normalised response (% of control), CellTiter-Glo; higher = more viable cells (100 = DMSO, 0 = benzethonium chloride kill control)
STUDY_CONDITIONS: incubation time: 72 h
# maps each entry to its normalised response

COMPOUND | ASSAYED_TARGET | normalised response, %
O=C(O)C1(C(=O)O)CCC1.[NH2-].[NH2-].[Pt+2] [Carboplatin] (10 nM) | MFM-223 | 98.4
CC[C@H](Nc1ncnc2[nH]cnc12)c1nc2cccc(F)c2c(=O)n1-c1ccccc1 [GS-1101] (1 nM) | MFM-223 | 85.4
O=C(O)C(=O)O.[NH-][C@@H]1CCCC[C@H]1[NH-].[Pt+2] [Oxaliplatin] (1000 nM) | MFM-223 | 92.3
N#Cc1ccc(C(c2ccc(C#N)cc2)n2cncn2)cc1 [Letrozole] (1000 nM) | MFM-223 | 100
C=CC(=O)N1CCC[C@@H](n2nc(-c3ccc(Oc4ccccc4)cc3)c3c(N)ncnc32)C1 [Ibrutinib] (1 nM) | MFM-223 | 108
Nc1ncn([C@H]2C[C@H](O)[C@@H](CO)O2)c(=O)n1 [Decitabine] (1000 nM) | MFM-223 | 96.5
CCCCC(=O)OCC(=O)[C@]1(O)Cc2c(O)c3c(c(O)c2[C@@H](O[C@H]2C[C@H](NC(=O)C(F)(F)F)[C@H](O)[C@H](C)O2)C1)C(=O)c1c(OC)cccc1C3=O [Valrubicin] (500 nM) | MFM-223 | 108
Oc1ncc(N(CCCl)CCCl)c(O)n1 [Uracil mustard] (1000 nM) | MFM-223 | 98.2
O=C(/C=C/c1cccnc1)NCCCCC1CCN(C(=O)c2ccccc2)CC1 [Daporinad] (100 nM) | MFM-223 | 4.38
CCc1cncnc1N1CCN(Cc2nc3ccc(C(F)(F)F)cc3[nH]2)CC1 (10 nM) | MFM-223 | 103
CNC(=O)c1cc(Oc2ccc(NC(=O)Nc3cc(C(C)(C)C)nn3-c3ccc4ncccc4c3)c(F)c2)ccn1 [Rebastinib] (1 nM) | MFM-223 | 100
Cc1ccc(-c2cc(C(F)(F)F)nn2-c2ccc(S(N)(=O)=O)cc2)cc1 [Celecoxib] (10 nM) | MFM-223 | 102
CCCCC(=O)OCC(=O)[C@]1(O)Cc2c(O)c3c(c(O)c2[C@@H](O[C@H]2C[C@H](NC(=O)C(F)(F)F)[C@H](O)[C@H](C)O2)C1)C(=O)c1c(OC)cccc1C3=O [Valrubicin] (0.5 nM) | MFM-223 | 102
Nc1nc(F)nc2c1ncn2[C@@H]1O[C@H](CO)[C@@H](O)[C@@H]1O [Fludarabine] (10 nM) | MFM-223 | 110
Nc1ccccc1NC(=O)c1ccc(CNC(=O)OCc2cccnc2)cc1 [Entinostat] (1000 nM) | MFM-223 | 98.2
C=CC(=O)Nc1cc2c(Nc3ccc(F)c(Cl)c3)ncnc2cc1OCCCN1CCOCC1 [Canertinib] (1 nM) | MFM-223 | 105
Nc1nc(F)nc2c1ncn2[C@@H]1O[C@H](CO)[C@@H](O)[C@@H]1O [Fludarabine] (1 nM) | MFM-223 | 109
N#Cc1ccc(C(c2ccc(C#N)cc2)n2cncn2)cc1 [Letrozole] (10 nM) | MFM-223 | 103

----------
Test system: MDA-MB-436
RUN_DESCRIPTION: normalised response (% of control), CellTiter-Glo; higher = more viable cells (100 = DMSO, 0 = benzethonium chloride kill control)
STUDY_CONDITIONS: incubation time: 72 h

MOLECULE | normalised response / %
COc1cc([C@@H]2c3cc4c(cc3[C@@H](O[C@@H]3O[C@@H]5CO[C@@H](c6cccs6)O[C@H]5[C@H](O)[C@H]3O)[C@H]3COC(=O)[C@H]23)OCO4)cc(OC)c1O [Teniposide] (10 nM) | 89.7
CC[C@H](C)C(=O)O[C@H]1C[C@H](O)C=C2C=C[C@H](C)[C@H](CC[C@@H](O)C[C@@H](O)CC(=O)O)[C@H]21 [Pravastatin] (1000 nM) | 18.9
N#Cc1ccc(C(c2ccc(C#N)cc2)n2cncn2)cc1 [Letrozole] (1 nM) | 104

----------
Test system: CAL-85-1
RUN_DESCRIPTION: normalised response (% of control), CellTiter-Glo; higher = more viable cells (100 = DMSO, 0 = benzethonium chloride kill control)
STUDY_CONDITIONS: incubation time: 72 h
OBSERVATION_TYPE: normalised response (%)

COMPOUND | ASSAYED_TARGET | VALUE_REPORTED
COc1cc2c(NC3CCN(C(C)C)CC3)nc(C3CCCCC3)nc2cc1OCCCN1CCCC1 [UNC0638] (1000 nM) | CAL-85-1 | 106
CCN(CC)CCCC(C)Nc1c2ccc(Cl)cc2nc2ccc(OC)cc12 (stereo unspecified) [Mepacrine] (5000 nM) | CAL-85-1 | 101
COc1cc2c(Oc3ccc4[nH]c(C)cc4c3F)ncnc2cc1OCCCN1CCCC1 [Cediranib] (1 nM) | CAL-85-1 | 109
COc1cc2nccc(Oc3ccc(NC(=O)Nc4cc(C)on4)c(Cl)c3)c2cc1OC [Tivozanib] (1 nM) | CAL-85-1 | 93
Nc1nc(F)nc2c1ncn2[C@@H]1O[C@H](CO)[C@@H](O)[C@@H]1O [Fludarabine] (10 nM) | CAL-85-1 | 98.8
COc1cc2c(NC3CCN(C(C)C)CC3)nc(C3CCCCC3)nc2cc1OCCCN1CCCC1 [UNC0638] (10 nM) | CAL-85-1 | 93.3
